Biological target: T1, Soluble IGF-1R (R&D Systems, Cat. # 391-GR/CF); recombinant human IGF-1R (human, UniProt P08069 31-935)
T1 construct: extracellular domain; Eu3+-labelled in the TR-FRET assays; also called sIGF-1R; rhIGF-1R
Assay: phage ELISA, vs IR
Positions of bridges follow the written chain, without caps; N, C: chain ends. No end group written: not given here.
Entries and their IGF-1R/IR Comparison values follow.
Respond with the bare value in ratio.

[[record]]
binder = "VERSASSQDGNFYDWFVVQIR [A6S-2-D1-IR]"
units_text = "ratio"
recorded_result = 2.6


Query: Answer with the recorded IGF-1R/IR Comparison for the binder listed here: SSYGCDGFYLMLFSLGLVASQELEC (disulfide 5-25 (inferred)) [20C-3-A1-IGFR]
Response: 13.7

Query: Answer with the recorded IGF-1R/IR Comparison for the binder listed here: DRDFCRFYERLTALVGGQVDGGWPC (disulfide 5-25 (inferred)) [20C-3-F6-IGFR]
Response: 14.1
